Biological target: recombinant HA1 domain (D18-R344), A/California/06/2009 (H1N1)pdm09 (Influenza A virus A/California/06/2009 …, UniProt C3W5S1, strain)
Assay: SPR
Settings: both partners purified
# Lookup of reported Kd keyed by entry
Measured Attribute: Kd (nM)

* R1a-G5 (VHH, source: E. coli WK6 periplasm, purified (Talon IMAC, Superdex 75 SEC)) VHH: QLQLVESGGGLVQPGGSLRLSCAASGSISRIVTMGWYRQASGKERELVAVIGNYGNTNYADSVKGRFTVSRDNAKDTAYLQMNGLNVEDTAIYYCKTSTTTPPYEYWGQGTQVTVSS | 15.6
* R2a-H9 (VHH, source: E. coli WK6 periplasm, purified (Talon IMAC, Superdex 75 SEC)) VHH: QVQLVESGGGLVQPGGSLRLSCAASTNIASFYTMGWYRQTPGQQRDVVAVIGNGGNTNYADSVKGRFTISRDGAKNTAHLQMNSLKPEDTDVYYCKASGPGGVILWGQGTQVTVSS | 468
* R2a-F9 (VHH, source: E. coli WK6 periplasm, purified (Talon IMAC, Superdex 75 SEC)) VHH: QVQLVESGGGLVQPGGSLRLSCSASGSISSIVTMGWYRQAPGKERELVAVIGNYGNTNYADSVKGRFTVSRDNAKNTVYLQMNSLNVEDTAMYVCKFSSTVAPHEYWGQGTQVTVSS | 78.8
* R1a-F4 (VHH, source: E. coli WK6 periplasm, purified (Talon IMAC, Superdex 75 SEC)) VHH: QVQLVESGGGLVQPGGSLRLSCAASGSISRIVTMGWYRQGPGKERELVAVIGNYGNTNYADSVKGRFTVSRDNAKDTAYLQMNNLNVEDTAMYYCKCSTTTPPHEFWGQGTQVTVSS | 4.74
